Kindly supply the reported log10 IC50 at 24 h values for the records listed here.
# PROTOCOL DESCRIPTION: Cytotoxicity against human […] cells incubated for 24 hrs by MTT assay
# Assay type: toxicity, cell-based
Record value = log10 of IC50 at 24 h given in µM.

| COMPOUND | QUANTITY NAME | RECORDED RESULT |
| --- | --- | --- |
| COc1cccc(C(c2ccc(C(F)(F)F)cc2)N2CCN(c3ccnc4cc(Cl)ccc34)CC2)c1O (stereo not drawn) | log10 IC50 at 24 h | 1.52 |
| COc1cccc(C(c2ccc(Cl)c(Cl)c2)N2CCN(c3ccnc4cc(Cl)ccc34)CC2)c1O (stereo not drawn) | log10 IC50 at 24 h | 2.24 |
| Oc1ccccc1C(c1ccc(F)c(Cl)c1)N1CCN(c2ccnc3cc(Cl)ccc23)CC1 (stereo not drawn) | log10 IC50 at 24 h | 2.14 |
| Oc1ccccc1C(c1ccc(F)c(F)c1)N1CCN(c2ccnc3cc(Cl)ccc23)CC1 (stereo not drawn) | log10 IC50 at 24 h | 2.27 |
| COc1ccc(C(c2cccc(OC)c2O)N2CCN(c3ccnc4cc(Cl)ccc34)CC2)cc1 (stereo not drawn) | log10 IC50 at 24 h | 2.33 |
| COc1cccc(C(c2ccc(F)c(F)c2)N2CCN(c3ccnc4cc(Cl)ccc34)CC2)c1O (stereo not drawn) | log10 IC50 at 24 h | 1.25 |
| Oc1ccccc1C(c1ccc(OC(F)(F)F)cc1)N1CCN(c2ccnc3cc(Cl)ccc23)CC1 (stereo not drawn) | log10 IC50 at 24 h | 2.02 |

Next:
Lab book: log10 IC50 at 24 h of Cc1ccc(C(c2ccccc2O)N2CCN(c3ccnc4cc(Cl)ccc34)CC2)cc1 (stereo not drawn) noted as 2.13
